Molecular target: T1, mouse VEGF (mouse, UniProt Q00731-2 27-190)
T1 construct: Bought recombinant protein; also called mVEGF-A; mouse VEGF-A
T1 sequence (looked up): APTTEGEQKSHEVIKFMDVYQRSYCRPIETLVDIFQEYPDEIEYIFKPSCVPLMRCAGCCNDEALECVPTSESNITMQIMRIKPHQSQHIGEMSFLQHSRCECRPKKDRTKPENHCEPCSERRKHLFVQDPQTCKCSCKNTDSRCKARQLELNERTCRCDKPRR
Assay: ELISA, mouse VEGF coated, anti-human Fc-HRP, absorbance 450 nm [a]

Binder: HF2-1 (antibody, V domains shown, also called HF-1) VH: EVQLVESGGGLVQPGGSLRLSCAASNFVFRSHGMQWVRQAPGKGLEYVAGISSDGSWTGYGAAVEGRFTISRDDSKNTAYLQMNSLRAEDTAVYYCARDFSTGYGADSIDAWGQGTLVTVSS VL: DIQMTQSPSSLSASVGDRVTITCSGGSDSAYGYGWYQQKPGKAPKTLIYWDDKRPSGVPSRFSGSRSGTDFTLTISSLQPEDFATYYCGAWEYSGGVGIFGQGTKVEIK
EC50 (read off the curve): ~0.08 mg/L
//
Binder: HF2-5 (antibody, V domains shown, also called HF-5) VH: EVQLVESGGGLVQPGGSLRLSCAASGFMIRSHGMQWVRQAPGKGLEYVAGISSDGSWARHSAAVEGRFTISRDDSKNTAYLQMNSLRAEDTAVYYCARDFSTGYGADSIDAWGQGTLVTVSS VL: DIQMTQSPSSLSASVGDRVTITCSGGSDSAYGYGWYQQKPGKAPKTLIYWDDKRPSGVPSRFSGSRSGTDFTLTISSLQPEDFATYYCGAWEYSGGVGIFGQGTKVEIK
EC50 (read off the curve): ~0.06 mg/L
//
Binder: HF2-9 (antibody, V domains shown, also called HF-9) VH: EVQLVESGGGLVQPGGSLRLSCAASMFRIRSHGMQWVRQAPGKGLEYVAGISSDGSWFRVAAAVEGRFTISRDDSKNTAYLQMNSLRAEDTAVYYCARDFSTGYGADSIDAWGQGTLVTVSS VL: DIQMTQSPSSLSASVGDRVTITCSGGSMEPLGYGWYQQKPGKAPKTLIYWDDKRPSGVPSRFSGSRSGTDFTLTISSLQPEDFATYYCGAWEYSGGVGIFGQGTKVEIK
EC50 (read off the curve): ~0.05 mg/L
